Assay: Solubility of diazepam or clofibrate complex with G2 βCD versus drug alone
Measured parameter: solubility (mg/mL)

CCOC(=O)C(C)(C)Oc1ccc(Cl)cc1 [Clofibrate, clofibrate] = 0.036

Recorded values, source patent US5486508A.
